Biological target: T1, 14-3-3γ (UniProt P61981 1-247)
T1 construct: 14-3-3 protein, gamma isoform; also called 14-3-3 protein
T1 sequence (looked up): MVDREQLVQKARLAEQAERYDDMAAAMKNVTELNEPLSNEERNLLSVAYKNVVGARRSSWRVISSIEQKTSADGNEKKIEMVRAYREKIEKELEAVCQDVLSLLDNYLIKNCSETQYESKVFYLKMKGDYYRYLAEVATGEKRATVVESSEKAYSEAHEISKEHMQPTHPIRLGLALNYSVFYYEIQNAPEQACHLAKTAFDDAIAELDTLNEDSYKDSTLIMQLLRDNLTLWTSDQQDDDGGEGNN
Assay: fluorescence polarisation; fluorescence anisotropy; 14-3-3γ titrated to FITC-labeled macrocycles F1-F4 and pepD (10 nM); mean ± SD, n = 3
Conditions: both partners purified
test.readout: pKd
Scale: negative log10 of molar concentration, which is what pKd denotes.

## Input Name the recorded pKd for SFSXFKXK (not fully specified; fluorescein isothiocyanate (FITC) on the side chain of the first lysine; β-alanine after it; phosphoserine; triazole from azido phenylalanine (replacing Nph(+1)) cyclised to the backbone amide nitrogen between Lys(+5) and Nph(+4), linker x = 4; β-homoSer(+2); β-Ala(+3); 4-nitrophenylalanine Nph(+4)) [macrocycle F4] .
## Output 5.68

## Input One more binder: SFSXFKXK (not fully specified; fluorescein isothiocyanate (FITC) on the side chain of the first lysine; β-alanine after it; phosphoserine; triazole from azido phenylalanine (replacing Nph(+1)) cyclised to the backbone amide nitrogen between Lys(+5) and Nph(+4), linker x = 2; β-homoSer(+2); β-Ala(+3); 4-nitrophenylalanine Nph(+4)) [macrocycle F2]
## Output 5.24

## Input Another binder: SFSXFKXK (not fully specified; fluorescein isothiocyanate (FITC) on the side chain of the first lysine; β-alanine after it; phosphoserine; triazole from azido phenylalanine (replacing Nph(+1)) cyclised to the backbone amide nitrogen between Lys(+5) and Nph(+4), linker x = 1; β-homoSer(+2); β-Ala(+3); 4-nitrophenylalanine Nph(+4)) [macrocycle F1]
## Output 4.24

## Input Now try SFSXFKXK (not fully specified; fluorescein isothiocyanate (FITC) on the side chain of the first lysine; β-alanine after it; phosphoserine; triazole from azido phenylalanine (replacing Nph(+1)) cyclised to the backbone amide nitrogen between Lys(+5) and Nph(+4), linker x = 3; β-homoSer(+2); β-Ala(+3); 4-nitrophenylalanine Nph(+4)) [macrocycle F3] .
## Output 6.64

Values were extracted from paper PMC12865133.
